- assayedTarget: PSD95 d3 (Homo sapiens)
- method: Matrix modified G-assay, small molecule competition titration
- conditionSet: competition with biotinylated PL peptide at GST-PDZ fusion protein; read-out: IC50 PSD95 d3 (relative binding affinity by titration analysis)
pIC50: −log10 of the molar value.
property: pIC50

So what does the record say about pIC50 for `CCOc1ccc(NS(=O)(=O)c2cccc(C(=O)Nc3ccccc3C(=O)O)c2)cc1` ? < 3.60

So what does the record say about pIC50 for `COc1cccc(-c2nc3c(c(SCC(=O)Nc4cccc(C(=O)O)c4)n2)Cc2c(CO)cnc(C)c2O3)c1` ? 5.46

So what does the record say about pIC50 for `Cc1ccc([N+](=O)[O-])cc1NC(=O)c1cc(S(=O)(=O)Nc2cccc(C(=O)O)c2)c(Cl)cc1Cl` ? < 3.60

====

- assayedTarget: Magi1 d1 (Homo sapiens, UniProt Q96QZ7)
- Sequence (Q96QZ7 472-554 limits assumed): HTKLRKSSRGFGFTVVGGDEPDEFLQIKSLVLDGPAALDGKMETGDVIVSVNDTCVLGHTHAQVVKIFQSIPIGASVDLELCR
- method: Matrix modified G-assay, small molecule competition titration
- conditionSet: competition with biotinylated PL peptide at GST-PDZ fusion protein; read-out: IC50 Magi1 d1 (relative binding affinity by titration analysis)
property: IC50

compound: CC(=O)N1CCc2cc(S(=O)(=O)NC(Cc3ccccc3)C(=O)Nc3ccccc3C(=O)O)ccc21 (stereo not shown)
IC50: > 250 µM

So what does the record say about IC50 for `COc1cccc(-c2nc3c(c(SCC(=O)Nc4cccc(C(=O)O)c4)n2)Cc2c(CO)cnc(C)c2O3)c1` ? 60.8 µM

So what does the record say about IC50 for `Cc1ccc([N+](=O)[O-])cc1NC(=O)c1cc(S(=O)(=O)Nc2cccc(C(=O)O)c2)c(Cl)cc1Cl` ? > 250 µM

So what does the record say about IC50 for `O=C(Nc1ccccc1C(=O)O)c1cccc(NC(=O)C(c2ccccc2)c2ccccc2)c1` ? 130 µM

So what does the record say about IC50 for `CCOc1ccc(NS(=O)(=O)c2cc(C(=O)Nc3ccccc3C(=O)O)ccc2C)cc1` ? > 250 µM

So what does the record say about IC50 for `O=C(NCCO)C(=O)Nc1ccccc1C(=O)O` ? > 250 µM

So what does the record say about IC50 for `CCOc1ccc(NS(=O)(=O)c2cccc(C(=O)Nc3ccccc3C(=O)O)c2)cc1` ? > 250 µM

====

- assayedTarget: PSD95 d2 (Homo sapiens)
- method: Matrix modified G-assay, small molecule competition titration
- conditionSet: competition with biotinylated PL peptide at GST-PDZ fusion protein; read-out: IC50 PSD95 d2 (relative binding affinity by titration analysis)
property: IC50 (µM)

[1] COc1cccc(-c2nc3c(c(SCC(=O)Nc4cccc(C(=O)O)c4)n2)Cc2c(CO)cnc(C)c2O3)c1 [Compound E544-0129]
[2] O=C(NCCO)C(=O)Nc1ccccc1C(=O)O [MC 247808]
Please indicate which item has the smaller measured IC50: 1 versus 2 The response must carry the label of the picked entry. 1
(1: 4.98 µM, 2: 221 µM)

====

- assayedTarget: UniProtKB Q9Y566
- Sequence (Q9Y566 663-757 limits assumed): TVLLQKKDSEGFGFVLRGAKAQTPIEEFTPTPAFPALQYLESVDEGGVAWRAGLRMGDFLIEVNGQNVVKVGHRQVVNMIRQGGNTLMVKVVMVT
- method: Matrix modified G-assay, small molecule competition titration
- conditionSet: competition with biotinylated PL peptide at GST-PDZ fusion protein; read-out: IC50 Shank 1 (relative binding affinity by titration analysis)
property: IC50

molecule: CCOc1ccc(NS(=O)(=O)c2cc(C(=O)Nc3ccccc3C(=O)O)ccc2C)cc1
property: IC50
reading: > 250 µM
//
molecule: Cc1ccc([N+](=O)[O-])cc1NC(=O)c1cc(S(=O)(=O)Nc2cccc(C(=O)O)c2)c(Cl)cc1Cl
property: IC50
reading: > 250 µM
//
molecule: O=C(NCCO)C(=O)Nc1ccccc1C(=O)O
property: IC50
reading: > 250 µM
//
molecule: COc1cccc(-c2nc3c(c(SCC(=O)Nc4cccc(C(=O)O)c4)n2)Cc2c(CO)cnc(C)c2O3)c1
property: IC50
reading: 7.59 µM
//
molecule: O=C(Nc1ccccc1C(=O)O)c1cccc(NC(=O)C(c2ccccc2)c2ccccc2)c1
property: IC50
reading: > 250 µM

So what does the record say about IC50 for CC(=O)N1CCc2cc(S(=O)(=O)NC(Cc3ccccc3)C(=O)Nc3ccccc3C(=O)O)ccc21 (stereo not shown) ? > 250 µM

So what does the record say about IC50 for `CCOc1ccc(NS(=O)(=O)c2cccc(C(=O)Nc3ccccc3C(=O)O)c2)cc1` ? > 250 µM

====

- assayedTarget: PSD95 d1 (Homo sapiens)
- method: Matrix modified G-assay, small molecule competition titration
- conditionSet: competition with biotinylated PL peptide at GST-PDZ fusion protein; read-out: IC50 PSD95 d1 (relative binding affinity by titration analysis)
Reported IC50 values for a set of compounds

compound: O=C(NCCO)C(=O)Nc1ccccc1C(=O)O [MC 247808]
reading: > 250 µM

compound: Cc1ccc([N+](=O)[O-])cc1NC(=O)c1cc(S(=O)(=O)Nc2cccc(C(=O)O)c2)c(Cl)cc1Cl [Compound 8009-5039]
reading: > 250 µM

compound: CCOc1ccc(NS(=O)(=O)c2cc(C(=O)Nc3ccccc3C(=O)O)ccc2C)cc1 [Compound 3558-0042]
reading: > 250 µM

compound: CC(=O)N1CCc2cc(S(=O)(=O)NC(Cc3ccccc3)C(=O)Nc3ccccc3C(=O)O)ccc21 (stereo not shown) [Compound C450-0454]
reading: 206 µM

compound: COc1cccc(-c2nc3c(c(SCC(=O)Nc4cccc(C(=O)O)c4)n2)Cc2c(CO)cnc(C)c2O3)c1 [Compound E544-0129]
reading: 2.5 µM

compound: CCOc1ccc(NS(=O)(=O)c2cccc(C(=O)Nc3ccccc3C(=O)O)c2)cc1 [Compound 3019-0348]
reading: > 250 µM

Moving on to another compound below.
So what does the record say about IC50 for O=C(Nc1ccccc1C(=O)O)c1cccc(NC(=O)C(c2ccccc2)c2ccccc2)c1 [Compound 3289-2331] ? > 250 µM
